System: CAPAN-1
Run Description: Cytotoxicity against human Capan1 cells assessed as reduction in cell viability
Format: functional, cell-based
So I've got a bunch of compounds here, and I need their IC50 values.

Q) What does the data say about its IC50? Entry: COc1cccc2c1C(=O)c1c(O)c3c(c(O)c1C2=O)C[C@@](O)(C(=O)CO)C[C@@H]3O[C@H]1C[C@H](N)[C@H](O)[C@H](C)O1
A) 1700 nM

Q) // repeat for COC(=O)c1ccc(/C=c2\sc3nc(-c4cn(C5CC5)c5cc(N6CCN(C)CC6)c(F)cc5c4=O)nn3c2=O)cc1 and report
A) 300 to 8400 nM

Q) // repeat for COC(=O)c1cccc(/C=c2\sc3nc(-c4cn(C5CC5)c5cc(N6CCN(C)CC6)c(F)cc5c4=O)nn3c2=O)c1 and report
A) 300 to 8400 nM

Q) // repeat for CN1CCN(c2cc3c(cc2F)c(=O)c(-c2nc4s/c(=C\c5ccc(S(N)(=O)=O)cc5)c(=O)n4n2)cn3C2CC2)CC1 and report
A) 300 nM

Q) // repeat for CN1CCN(c2cc3c(cc2F)c(=O)c(-c2nc4s/c(=C\c5ccc(C(=O)O)cc5)c(=O)n4n2)cn3C2CC2)CC1 and report
A) 300 to 8400 nM

Q) // repeat for Cc1ccc(/C=c2\sc3nc(-c4cn(C5CC5)c5cc(N6CCN(C)CC6)c(F)cc5c4=O)nn3c2=O)cc1 and report
A) > 10000 nM

Q) // repeat for CN1CCN(c2cc3c(cc2F)c(=O)c(-c2nc4s/c(=C\c5cccc(C#N)c5)c(=O)n4n2)cn3C2CC2)CC1 and report
A) > 10000 nM
